For each of the sequences below, state its binding signal.
# target or system: OsWOX13 (Oryza sativa, UniProt Q5QMM3 1-267)
# Sequence: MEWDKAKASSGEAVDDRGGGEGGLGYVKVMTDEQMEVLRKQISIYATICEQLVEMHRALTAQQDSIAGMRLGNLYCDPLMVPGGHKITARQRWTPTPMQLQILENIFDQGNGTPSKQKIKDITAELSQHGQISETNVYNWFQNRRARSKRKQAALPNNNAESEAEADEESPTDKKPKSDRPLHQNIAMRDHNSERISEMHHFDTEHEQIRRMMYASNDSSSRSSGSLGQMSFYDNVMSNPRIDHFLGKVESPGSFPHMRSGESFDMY
# assay overview: protein-binding microarray (RPBM); PBS, 2% BSA, 51.3 ng/ul salmon testes DNA, 50 uM zinc acetate, 200 nM TF, 25 C, 1 h; high values mean tight binding
# measurement conditions: protein: recombinant; tags: N-terminal polyhistidine and DsRed monomer fusion (pET32a); label: CyDye5-dUTP incorporated in the synthesized complementary strand; 3' TTTTT single-stranded linker to array surface; dsDNA, one strand shown
Over roughly 35,000 sequences, “fluorescence intensity (a.u.)” has its median near 10,000; the highest 2% begin near 52,000. Only a selection was taken, and the highest values are over-represented in it overall.

q: Field request: binding signal | item: GTATTAATCACATTTCATTTCAACTTTTGATTCTGATATGCGGAGTCACCTAGTGCAG
a: 5200 fluorescence intensity (a.u.)

q: Entry CTTTAATTAATTTAACTGCCATTATTATGTACTTTCAGAGCGGAGTCACCTAGTGCAG : reported binding signal = ?
a: 63200 fluorescence intensity (a.u.)

q: Fill blank: measured binding signal of the sequence AAATTGACAAGATAGATCAATATATAATATATCACTACACCGGAGTCACCTAGTGCAG is ____.
a: 10200 fluorescence intensity (a.u.)

q: Quick check: binding signal of AAACTGATTCTTTGATTATTGACGTCTCATAGACCTACGTCGGAGTCACCTAGTGCAG ?
a: 31600 fluorescence intensity (a.u.)

q: Find the recorded binding signal belonging to CCCGCTTGAATGGATGGCAATCAACACAAGGAACAGACCGCGGAGTCACCTAGTGCAG and report it.
a: 13700 fluorescence intensity (a.u.)

q: For the sequence shown here, TAATTAATAATTAATTAATTATGTGTTAATTGCTTGCTCCCGGAGTCACCTAGTGCAG , give the reported binding signal.
a: 65500 fluorescence intensity (a.u.)

q: Could you share which binding signal value was measured for TTGATTGACTAAACTGTCACGTCAGCGTCATATTGACGAACGGAGTCACCTAGTGCAG ?
a: 54900 fluorescence intensity (a.u.)

q: What value of binding signal has been recorded for this entry: CGTTTTGATGGATGGCTCAGATCGGTTCCGAATCGATCAACGGAGTCACCTAGTGCAG
a: 5120 fluorescence intensity (a.u.)

q: Consider the sequence shown here: CTAATTGATTAGTAAACTATTTATATAGGACTGTTGTTTTCGGAGTCACCTAGTGCAG What is its recorded binding signal?
a: 58300 fluorescence intensity (a.u.)

q: Any idea what its binding signal is? The sequence is AGTGATTAATGAGACAAATAGTACTTTATTGTGACAAGTACGGAGTCACCTAGTGCAG
a: 30900 fluorescence intensity (a.u.)

q: I am curious: what binding signal value has been reported for ATTTTGAAATTTTAATTTTAAAATTACATTTTGGGACAAACGGAGTCACCTAGTGCAG ?
a: 8130 fluorescence intensity (a.u.)

q: So what's the measured binding signal for this one? TCCTGTAACAGAATTGGAAAACCCAATCTGGCGACGGCTGCGGAGTCACCTAGTGCAG
a: 9790 fluorescence intensity (a.u.)

q: Record request: binding signal value, item TATATTTATTATTTGCAGTTAATTATGTTACAAATAATAACGGAGTCACCTAGTGCAG
a: 4460 fluorescence intensity (a.u.)

Attribution: paper PMC7819943
